Assay: Faction unbound in human plasma at 1 uM
Format: ADME, cell-free
Criterion: fraction unbound at 1 µM strictly less than 0.01. Met: met. Not met: not met.

**Query** Given CC(C)(C)Cc1c[nH]c(C(C)(O)Cc2ccc(-c3ccc(F)cn3)cc2)n1 (stereo not given) , is recorded fraction unbound at 1 µM strictly lower than 0.01?
**Result** met

**Query** Quick check: fraction unbound at 1 µM of CC(O)(Cc1nc(CC2(C(F)(F)F)CC2)c[nH]1)c1ccc(-n2cccn2)cc1 (stereo not given) under 0.01?
**Result** not met

New cases:
**Query** I wonder whether CC(C)(C)Cc1c[nH]c(CC(C)(O)c2ccc(-n3cccn3)cc2)n1 (stereo not given) has fraction unbound at 1 µM below 0.01. Can you tell?
**Result** not met

**Query** Could you please tell me whether fraction unbound at 1 µM recorded for CC(C)(C)Cc1c[nH]c(CC(C)(O)c2ccc(-c3ccc(F)cn3)cc2)n1 (stereo not given) is less than 0.01?
**Result** met

----------
Assay: Oral bioavailability in rhesus monkey at 1 mg/kg
Format: ADME, organism-based, Macaca mulatta
Conditions: in vivo
property_name: bioavailability (%)
// note: answer is a bare numeric in %

**Query** Would you mind telling me what bioavailability value was observed for O[C@@](Cc1nc(CC2(C(F)(F)F)CC2)c[nH]1)(c1ccc(-n2cccn2)cc1)C(F)(F)F ?
**Result** 18

----------
Test: Inhibition of human calcium channel diltiazem binding site
property_name: pIC50
Please express pIC50 as -log10 of the molar concentration.

**Query** Query (molecule): CC(C)(C)Cc1c[nH]c(CC(C)(O)c2ccc(-c3ccc(F)cn3)cc2)n1 (stereo unspecified) ; field requested: pIC50
**Result** 5.72

----------
Test: Binding affinity to rhesus monkey BRS-3
Set-up: species or system Macaca mulatta
property_name: pIC50
Schema: pIC50 number; meaning minus log10 of the concentration expressed in molar units.

**Query** Query (molecule): O[C@@](Cc1nc(CC2(C(F)(F)F)CC2)c[nH]1)(c1ccc(-n2cccn2)cc1)C(F)(F)F ; field requested: pIC50
**Result** 7.30

----------
Test: Half life in rhesus monkey at 0.5 mg/kg, iv
Type: ADME, organism-based, Macaca mulatta
Set-up: dose 0.5 mg/kg, route intravenous
Settings: in vivo
property_name: half-life
Note: state the figure and append the unit.

**Query** Give the measured half-life of O[C@@](Cc1nc(CC2(C(F)(F)F)CC2)c[nH]1)(c1ccc(-n2cccn2)cc1)C(F)(F)F .
**Result** 1 h

----------
Target: Bombesin receptor subtype-3 (Rattus norvegicus)
Sequence (Q8K418 whole entry): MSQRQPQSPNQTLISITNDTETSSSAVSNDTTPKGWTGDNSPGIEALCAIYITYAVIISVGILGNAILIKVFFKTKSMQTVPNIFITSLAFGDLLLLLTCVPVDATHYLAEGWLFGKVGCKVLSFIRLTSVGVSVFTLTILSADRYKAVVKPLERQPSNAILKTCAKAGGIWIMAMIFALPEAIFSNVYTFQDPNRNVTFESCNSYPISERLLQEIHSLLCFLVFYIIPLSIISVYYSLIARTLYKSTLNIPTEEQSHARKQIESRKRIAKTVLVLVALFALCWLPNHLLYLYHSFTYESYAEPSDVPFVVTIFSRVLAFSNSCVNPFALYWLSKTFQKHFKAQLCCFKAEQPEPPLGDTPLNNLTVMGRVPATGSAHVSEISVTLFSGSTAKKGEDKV
property_name: pIC50
Keep in mind that pIC50 stands for -log10 of concentration in molar terms.

**Query** Can you look up the measured pIC50 of O[C@@](Cc1nc(CC2(C(F)(F)F)CC2)c[nH]1)(c1ccc(-n2cccn2)cc1)C(F)(F)F for me?
**Result** 8.92

----------
Documented half-life across a set of compounds
Assay: Half life in dog at 0.5 mg/kg, iv
Type: ADME, organism-based, Canis lupus familiaris
Design: dose 0.5 mg/kg, route intravenous
Conditions: in vivo
Give just the number in min; leave the unit off.

**Query** Which half-life is reported for this compound? CC(O)(Cc1nc(CC2(C(F)(F)F)CC2)c[nH]1)c1ccc(-n2cccn2)cc1 (configuration not stated)
**Result** 18

Now let's try a different one.
**Query** I'd like to know its half-life. The compound in question is O[C@@](Cc1nc(CC2(C(F)(F)F)CC2)c[nH]1)(c1ccc(-n2cccn2)cc1)C(F)(F)F
**Result** 84

----------
Experiment: Plasma clearance in rhesus monkey at 0.5 mg/kg, iv
Assay type: ADME, organism-based, Macaca mulatta
Parameters: dose 0.5 mg/kg, route intravenous
property_name: clearance (mL/min/kg)
Only the number, expressed in mL/min/kg, is required.

**Query** So what does the record say about clearance for O[C@@](Cc1nc(CC2(C(F)(F)F)CC2)c[nH]1)(c1ccc(-n2cccn2)cc1)C(F)(F)F ?
**Result** 8.8

----------
Assay: Binding affinity to dog BRS-3
Design: species or system Canis lupus familiaris
property_name: Ki (nM)
Give a bare numeral; the unit nM is implied.

**Query** I would be grateful if you could share the reported Ki for O[C@@](Cc1nc(CC2(C(F)(F)F)CC2)c[nH]1)(c1ccc(-n2cccn2)cc1)C(F)(F)F .
**Result** 9.9

----------
Assay: Binding affinity to rhesus monkey BRS-3
Design: species or system Macaca mulatta
property_name: pKi
pKi is a log-scale quantity: -log10 of the concentration expressed in molar.

**Query** For O[C@@](Cc1nc(CC2(C(F)(F)F)CC2)c[nH]1)(c1ccc(-n2cccn2)cc1)C(F)(F)F , what is its reported pKi?
**Result** 8.62

----------
Assay: Half life in mouse at 1 mg/kg, iv
Assay type: ADME, organism-based
Design: dose 1 mg/kg, route intravenous
Conditions: in vivo
property_name: half-life (h)
Form entry: value (h) — number only.

**Query** Consider the compound shown here: O[C@@](Cc1nc(CC2(C(F)(F)F)CC2)c[nH]1)(c1ccc(-n2cccn2)cc1)C(F)(F)F What is its recorded half-life?
**Result** 1.1

----------
Assay: Plasma clearance in mouse at 1 mg/kg, iv
Format: ADME, organism-based
Design: dose 1 mg/kg, route intravenous
property_name: clearance (mL/min/kg)
Just the number in mL/min/kg, nothing appended.

**Query** Returns the measured clearance for the input molecule. Input: O[C@@](Cc1nc(CC2(C(F)(F)F)CC2)c[nH]1)(c1ccc(-n2cccn2)cc1)C(F)(F)F
**Result** 32

----------
Target: Bombesin receptor subtype-3 (Mus musculus, UniProt O54798)
Sequence (O54798 whole entry): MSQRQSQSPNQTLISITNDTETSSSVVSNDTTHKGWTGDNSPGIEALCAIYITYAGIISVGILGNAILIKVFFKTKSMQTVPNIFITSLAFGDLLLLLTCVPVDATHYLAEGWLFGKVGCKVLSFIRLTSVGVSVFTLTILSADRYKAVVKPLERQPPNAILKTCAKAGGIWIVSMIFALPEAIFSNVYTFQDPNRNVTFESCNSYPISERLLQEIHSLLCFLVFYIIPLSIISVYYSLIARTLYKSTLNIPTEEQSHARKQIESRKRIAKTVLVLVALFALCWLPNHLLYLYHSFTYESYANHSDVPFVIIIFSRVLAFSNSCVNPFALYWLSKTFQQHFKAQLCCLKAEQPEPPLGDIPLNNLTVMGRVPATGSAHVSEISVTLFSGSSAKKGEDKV
property_name: pIC50
Give only the number. pIC50 is defined as minus log10 of concentration in molar units.

**Query** # get_value(readout='pIC50', item= O[C@@](Cc1nc(CC2(C(F)(F)F)CC2)c[nH]1)(c1ccc(-n2cccn2)cc1)C(F)(F)F )
**Result** 8.27

----------
pEC50 overview
Target: Bombesin receptor subtype-3 (Homo sapiens, UniProt P32247)
Sequence (P32247 whole entry): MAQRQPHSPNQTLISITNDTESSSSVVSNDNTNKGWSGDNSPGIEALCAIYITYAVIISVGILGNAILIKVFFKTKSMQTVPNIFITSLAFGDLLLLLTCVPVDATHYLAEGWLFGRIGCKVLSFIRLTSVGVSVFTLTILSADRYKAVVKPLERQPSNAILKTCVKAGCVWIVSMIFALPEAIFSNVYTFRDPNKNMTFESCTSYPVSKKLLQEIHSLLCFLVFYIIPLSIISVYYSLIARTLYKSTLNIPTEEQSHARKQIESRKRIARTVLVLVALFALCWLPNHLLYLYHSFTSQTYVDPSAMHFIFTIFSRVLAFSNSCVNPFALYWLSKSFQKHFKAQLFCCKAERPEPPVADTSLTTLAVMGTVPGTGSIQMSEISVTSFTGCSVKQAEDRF
Assay: Agonist activity at human BRS-3 expressed in HEK293AEQ cells assessed as induction of intracellular calcium mobilization by aequorin bioluminescence assay
// pEC50 is dimensionless: -log10 of concentration (M)

**Query** # query: pEC50 of entry O[C@@](Cc1nc(CC2(C(F)(F)F)CC2)c[nH]1)(c1ccc(-n2cccn2)cc1)C(F)(F)F
**Result** 7.85

Further cases:
**Query** Can you look up the measured pEC50 of CC(C)(C)Cc1c[nH]c(CC(C)(O)c2ccc(-n3cccn3)cc2)n1 (stereo not given) for me?
**Result** 7.80

**Query** Find the recorded pEC50 belonging to CC(C)(C)Cc1c[nH]c(C(C)(O)Cc2ccc(-c3ccc(F)cn3)cc2)n1 (stereo not given) and report it.
**Result** 6.66

**Query** Given CC(C)(C)Cc1c[nH]c(CC(C)(O)c2ccc(-c3ccc(F)cn3)cc2)n1 (stereo not given) , state its recorded pEC50.
**Result** 7.17

**Query** What value of measured pEC50 is listed for CC(O)(Cc1nc(CC2(C(F)(F)F)CC2)c[nH]1)c1ccc(-n2cccn2)cc1 (stereo not given) ?
**Result** 7.85

----------
Test: Volume of distribution at steady state in dog at 0.5 mg/kg, iv
Type: ADME, organism-based, Canis lupus familiaris
Set-up: dose 0.5 mg/kg, route intravenous
Settings: in vivo, read-out: Vdss
property_name: Vd (L/kg)
Just the number please, in L/kg, no unit attached.

**Query** Query (molecule): O[C@@](Cc1nc(CC2(C(F)(F)F)CC2)c[nH]1)(c1ccc(-n2cccn2)cc1)C(F)(F)F ; field requested: Vd
**Result** 0.45

----------
Test: Oral bioavailability in mouse at 2 mg/kg, po
Type: ADME, organism-based
Conditions: in vivo
property_name: bioavailability (%)
# unit: % | format: bare number

**Query** bioavailability for O[C@@](Cc1nc(CC2(C(F)(F)F)CC2)c[nH]1)(c1ccc(-n2cccn2)cc1)C(F)(F)F ?
**Result** 9.6

----------
The following molecules are shown together with reported clearance values.
Assay: Plasma clearance in dog at 0.5 mg/kg, iv
Format: ADME, organism-based, Canis lupus familiaris
Design: dose 0.5 mg/kg, route intravenous
Lab book: enter the figure in mL/min/kg, no units written.

**Query** Dear colleague, I am looking for the recorded clearance of the following molecule: CC(O)(Cc1nc(CC2(C(F)(F)F)CC2)c[nH]1)c1ccc(-n2cccn2)cc1 (configuration not stated)
**Result** 10

We next turn to a different molecule, shown below.
**Query** Value lookup for clearance; key = O[C@@](Cc1nc(CC2(C(F)(F)F)CC2)c[nH]1)(c1ccc(-n2cccn2)cc1)C(F)(F)F
**Result** 5.6

----------
half-life listing for selected molecules.
Experiment: Half life in rat liver microsomes
Numeric answer only, unit min assumed.

Examples with their reported half-life follow.
**Query** Tell me the measured half-life of CCC(C)(C)Cc1cnc(CCc2ccc(-c3ccc(F)cn3)cc2)[nH]1 , please.
**Result** 3

**Query** Using the record for CC(C)(C)Cc1c[nH]c(C(C)(O)Cc2ccc(-c3ccc(F)cn3)cc2)n1 (stereo not drawn) , report its half-life.
**Result** 1

Others:
**Query** Quick one: half-life of CC(C)(C)Cc1c[nH]c(CC(C)(O)c2ccc(-c3ccc(F)cn3)cc2)n1 (stereo not drawn) ?
**Result** 5
